- method: protein stability index of a GFP-peptide fusion (yeast GPS) (PSI 1-4); higher = more stable; sorted into four equal gates, so the index is relative within each strain
- conditions-used: doa10∆
measured-attribute: protein stability index
One number for each entry.

{"sequence-data": "MWSVARAGQRGYHSRTS [RPL3]", "protein stability index": 2.86}

Your task in this section: give protein stability index for each listed record.
1. ASYAKIEIKISDPLTVF [SNU114]
2. LKKLEKEYELLTLQEDY [RPT3]
3. AGSTGFSFGQNNNNTNT [YGR119C/NUP57]
4. MSNQALYEKLEQTRTIL [SRB6]
5. IKIVSDKKVLVKVQPEG [RPT6]
6. VSNILSAFKFIHTQLSE [YJL039C/NUP192]

output:
1: 1.21; 2: 2.37; 3: 2.52; 4: 3.11; 5: 2.75; 6: 2.19

###

- method: protein stability index of a GFP-peptide fusion (yeast GPS) (PSI 1-4); higher = more stable; sorted into four equal gates, so the index is relative within each strain
- conditions-used: doa10∆
measured-attribute: protein stability index

Example cases with answers are listed next.
{"sequence-data": "NLMILNTKVPVDIVNQW [YML103C/NUP188]", "protein stability index": 1.68}
{"sequence-data": "ITKLLEINLSKIFQTTP [YCS4]", "protein stability index": 2.58}
{"sequence-data": "KLIAAAEDGSRSTKDMI [SNF6]", "protein stability index": 3.54}
{"sequence-data": "WQELARSTDEFNGAQLK [RPT5]", "protein stability index": 2.52}
{"sequence-data": "KLNTLSEILSFDPVYTT [YML103C/NUP188]", "protein stability index": 2.54}

Your task in this section: give protein stability index for each listed record.
1. SLTLSFIRHVAKLNYKN [ECM29]
2. KSVLGDGKKHSVFYTIL [RPO31]
3. LIENKIQNKKIQEQRVK [RPN8]
4. FEDSMQFKKLTHAQRTG [PRP8]
5. QLVTREAQIKDWVENEL [FAS2]
6. SSHLSDNDFIINDFKKI [POP5]
7. AMANAPGNNIPYMNHKN [GAL11]

output:
[2.7, 2.19, 2.61, 2.81, 3.44, 3.06, 2.83]

Your task in this section: give protein stability index for each listed record.
1. LQRTILNRIINHMLIDS [RGR1]
2. TPKVVRSQDQENPAFLP [SEC65]
3. EYTINLHKRLHGVSFKK [RPL31A]
4. ERDCVIAYGASQLLLER [RET1]
5. ILNEVFTNPSIVKVFHG [RRP6]
6. GQSINDSLKKLLPQWDD [ARP9]

output:
1: 2.76; 2: 2.66; 3: 2.24; 4: 1.18; 5: 1.24; 6: 2.88

Your task in this section: give protein stability index for each listed record.
1. WLNFLRGTIPLLERYIG [PRP8]
2. PQEETITFLIEKAKEMI [ECM29]

output:
1. 1.41
2. 3.03

Your task in this section: give protein stability index for each listed record.
1. KREKRVFLKHSLSIKLA [RPN6]
2. DENDSKKNNAASELANP [YAR002W/NUP60]
3. VHDIFSKIFNESFPDDI [CDC53]

output:
1. 2.58
2. 2.97
3. 2.86

###

I'd appreciate it if you could supply protein stability index values for the items below.
- method: protein stability index of a GFP-peptide fusion (yeast GPS) (PSI 1-4); higher = more stable; sorted into four equal gates, so the index is relative within each strain
- conditions-used: ubr1∆

Example cases with answers are listed next.
{"sequence-data": "LTHSTPKNFGIGQAVQP [RPL8A]", "result": 3.18}
{"sequence-data": "FLERFDFYTRHHFTCEI [ITC1]", "result": 2.61}
{"sequence-data": "PPSLKIIDGPKALILAP [PRP28]", "result": 1.63}

Your task in this section: give protein stability index for each listed record.
1. VRNKSYPVYTRLRTLCR [DIS3]
2. HHAIEEAESLLQFHVAT [RPO21]

output:
2.46
2.94

Your task in this section: give protein stability index for each listed record.
1. KEYISRLWHTLKYYQDL [SNF5]
2. LDPISLILIPGETMWVP [RPN13]
3. KNKDSLVSNPHEIYGSM [SRB4]
4. QLDFTEFDEQYGTRPLV [SNF2]
5. PADSTYGAYNTQIANAG [PRE4]
6. DLKFEPQGRQSTTFADC [RPC40]

output:
[1.58, 3.4, 3.26, 2.81, 1.69, 3.15]

###

- method: protein stability index of a GFP-peptide fusion (yeast GPS) (PSI 1-4); higher = more stable; sorted into four equal gates, so the index is relative within each strain
- conditions-used: ubr1∆
I'd appreciate it if you could supply protein stability index values for the items below.
Numbers only.

Example cases with answers are listed next.
{"sequence-data": "ANFIFSPASGIVDKYIG [RPT4]", "protein stability index": 2.42}
{"sequence-data": "PVVRAPTVKYNRKVRAG [RPL13A]", "protein stability index": 1.49}
{"sequence-data": "EITAKEVYDFTHAVGNN [FAS1]", "protein stability index": 3.08}

Your task in this section: give protein stability index for each listed record.
1. KKLESQESLVKLFTTNE [RPN5]
2. VISSGPLAAGNFVSEKG [RPC53]
3. VHDIFSKIFNESFPDDI [CDC53]
4. FGAPNNPNSTAITADLG [YGL172W/NUP49]
5. DDDEIVMPVPNVRSSVL [SKP1]
6. LQGEVENIAQMKPKAEK [SMC4]
7. SSNIAGTNPLSSDGAYT [SSN2]

output:
[2.88, 2.48, 2.82, 2.84, 2.48, 3.11, 3.33]

Your task in this section: give protein stability index for each listed record.
1. QDLPKINDKRANLMLVM [SRB4]
2. KIAGIEGHLAEIRAKEY [SRB2]
3. VAARGLDIPNVSLVVNF [PRP28]
4. TKVLQFAAKQRQELQMQ [SNF2]

output:
[1.73, 3.31, 3.1, 2.31]

###

I'd appreciate it if you could supply protein stability index values for the items below.
- method: protein stability index of a GFP-peptide fusion (yeast GPS) (PSI 1-4); higher = more stable; sorted into four equal gates, so the index is relative within each strain
- conditions-used: ubr1∆
Answers are plain numbers.

Example cases with answers are listed next.
{"sequence-data": "DDFTNELKAELDRYKRE [SEM1]", "protein stability index": 3.47}
{"sequence-data": "NTNELKEVSSFLMGIFN [MTR3]", "protein stability index": 3.1}
{"sequence-data": "KTSLSIKVENLNDTTEK [SMC2]", "protein stability index": 2.89}
{"sequence-data": "IAATQDFITGSYLISHK [RPO31]", "protein stability index": 3.13}
{"sequence-data": "ETENSESIASSNTYKEE [MCD1]", "protein stability index": 2.89}

Your task in this section: give protein stability index for each listed record.
1. ISYTSHIEGVVILKKNP [RPN1]
2. LDTYLPEDLNSLYIYYL [SIR2]
3. QQLAYDLSISALLGDKI [RPN9]
4. SAFKFIHTQLSEIKQQI [YJL039C/NUP192]
5. DESNDIDMIADENGTNS [RPC37]
6. LIPASDLSWSKQTDTGI [PRP8]

output:
1: 2.52; 2: 2.63; 3: 2.15; 4: 2.83; 5: 3.12; 6: 2.38

###

I'd appreciate it if you could supply protein stability index values for the items below.
- method: protein stability index of a GFP-peptide fusion (yeast GPS) (PSI 1-4); higher = more stable; sorted into four equal gates, so the index is relative within each strain
- conditions-used: san1∆
Numbers only.

Example cases with answers are listed next.
{"sequence-data": "FDKIIKIREDHINKIPS [SRB8]", "protein stability index": 2.96}
{"sequence-data": "AVNMTQNIMTLPDGKNG [MED6]", "protein stability index": 2.67}
{"sequence-data": "TFFPRCIIAVSCTLLER [POP1]", "protein stability index": 1.5}
{"sequence-data": "AEQPLPVSPLDIYSDEA [RPS2]", "protein stability index": 2.9}
{"sequence-data": "YTKPYPNFEASFVHGVV [SMC2]", "protein stability index": 2.47}
{"sequence-data": "QSTPVLLNHGERAELET [RPN1]", "protein stability index": 2.02}
{"sequence-data": "VSQMVAVVGQQIISGNR [RPO31]", "protein stability index": 3}
{"sequence-data": "KIDLLSGQFYFRNPTPL [RGR1]", "protein stability index": 3.12}
{"sequence-data": "SNVYLSLVNSYIIDSPQ [COB]", "protein stability index": 2.24}
{"sequence-data": "DYPFTQLGYIENSFYKK [POP1]", "protein stability index": 2.98}

Your task in this section: give protein stability index for each listed record.
1. HKNERRVLEIQTSLVRM [SKI6]
2. AMKELAEKKIPLVIRRY [RPO26]
3. KVAPAPFGAKSTKSNKT [RPL8A]
4. HPFIPLLKEKPNALKPL [RRP6]
5. AASLIMPFLDNQVNFKN [PRE7]
6. FDVMIDEESLVKYMPEQ [RPO21]
7. KDNDKNLKFLKNKDSLV [SRB4]
8. FLKLYVLVKWTRTIKQN [RGR1]

output:
1: 2.44; 2: 1.7; 3: 2.74; 4: 2.94; 5: 1.31; 6: 1.86; 7: 3.28; 8: 2.38
